target: cyclooxygenase 2 (COX 2) (Mus musculus)
Construct: using mice peritoneal macrophages exposed to inflammatory stimuli (zymosan and LPS, respectively); endogenous in cells; host or cells: mouse peritoneal macrophages exposed to LPS
Sequence (Q05769 18-604): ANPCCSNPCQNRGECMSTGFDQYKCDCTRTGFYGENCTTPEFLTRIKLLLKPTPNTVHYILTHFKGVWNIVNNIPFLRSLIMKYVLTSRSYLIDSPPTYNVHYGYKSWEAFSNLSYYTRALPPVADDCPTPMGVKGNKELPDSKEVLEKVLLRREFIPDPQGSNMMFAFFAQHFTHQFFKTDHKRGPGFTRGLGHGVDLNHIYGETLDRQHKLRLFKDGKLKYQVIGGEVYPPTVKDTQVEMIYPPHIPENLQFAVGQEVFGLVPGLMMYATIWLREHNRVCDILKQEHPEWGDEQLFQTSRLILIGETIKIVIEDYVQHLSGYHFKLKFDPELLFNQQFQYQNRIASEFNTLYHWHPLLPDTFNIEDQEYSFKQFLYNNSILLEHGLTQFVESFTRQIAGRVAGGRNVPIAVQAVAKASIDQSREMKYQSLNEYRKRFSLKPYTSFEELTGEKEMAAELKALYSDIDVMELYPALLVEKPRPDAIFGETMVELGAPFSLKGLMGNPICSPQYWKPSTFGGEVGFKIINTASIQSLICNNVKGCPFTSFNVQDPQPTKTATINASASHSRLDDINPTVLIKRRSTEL
experiment.description: Inhibitory activity in relation to COX 2 in peritoneal macrophages exposed to LPS
Format: cell-based
protocol.conditions: read-out: IC50 cox 2, mice peritoneal macrophages
reported.property: IC50 (nM)
Output spec: scalar in nM, unitless text.

Recorded result, c1ccc(-c2[nH]c(-c3ccccc3)c3c2CCCC3)cc1 , IC50: 1

* * *

target: cyclooxygenase 2 (COX 2) (Mus musculus)
Construct: using mice peritoneal macrophages exposed to inflammatory stimuli (zymosan and LPS, respectively); endogenous in cells; host or cells: mouse peritoneal macrophages exposed to LPS
experiment.description: Inhibitory activity in relation to COX 2 in peritoneal macrophages exposed to LPS
Assay type: cell-based
protocol.conditions: mice peritoneal macrophages, read-out: IC50 cox 2
reported.property: IC50 (nM)
The reply should contain only the number, in nM.

The recorded IC50 for Fc1ccc(-c2[nH]c(-c3ccc(F)cc3)c3c2CCCC3)cc1 is 1

* * *

target: cyclooxygenase 1 (COX 1) (Mus musculus)
Construct: using mice peritoneal macrophages exposed to inflammatory stimuli (zymosan and LPS, respectively); endogenous in cells; host or cells: mouse peritoneal macrophages exposed to zymosan
experiment.description: Inhibitory activity in relation to COX 1 in peritoneal macrophages exposed to zymosan
Format: cell-based
protocol.conditions: mice peritoneal macrophages
Listed here are compounds together with their documented pIC50.
Kindly note that pIC50 refers to -log10 of the concentration in mol/L and answer with the value alone.

- compound: "C1=CCc2c(-c3ccccc3)[nH]c(-c3ccccc3)c2C1 [Example 5, 1,3-diphenyl-4,7-dihydro-2H-isoindole]"
  pIC50: 7.00

Let us move to another entry and its pIC50.
The observed pIC50 for Fc1ccc(-c2[nH]c(-c3ccc(F)cc3)c3c2C2CCC3C2)cc1 [Example 19] when tested with cyclooxygenase 1 (COX 1) (Mus musculus) stands at 7.00

* * *

The compounds listed here are annotated with their pIC50.
target: cyclooxygenase 1 (COX 1) (Mus musculus, UniProt P22437)
Construct: using mice peritoneal macrophages exposed to inflammatory stimuli (zymosan and LPS, respectively); endogenous in cells
Sequence (P22437 27-602): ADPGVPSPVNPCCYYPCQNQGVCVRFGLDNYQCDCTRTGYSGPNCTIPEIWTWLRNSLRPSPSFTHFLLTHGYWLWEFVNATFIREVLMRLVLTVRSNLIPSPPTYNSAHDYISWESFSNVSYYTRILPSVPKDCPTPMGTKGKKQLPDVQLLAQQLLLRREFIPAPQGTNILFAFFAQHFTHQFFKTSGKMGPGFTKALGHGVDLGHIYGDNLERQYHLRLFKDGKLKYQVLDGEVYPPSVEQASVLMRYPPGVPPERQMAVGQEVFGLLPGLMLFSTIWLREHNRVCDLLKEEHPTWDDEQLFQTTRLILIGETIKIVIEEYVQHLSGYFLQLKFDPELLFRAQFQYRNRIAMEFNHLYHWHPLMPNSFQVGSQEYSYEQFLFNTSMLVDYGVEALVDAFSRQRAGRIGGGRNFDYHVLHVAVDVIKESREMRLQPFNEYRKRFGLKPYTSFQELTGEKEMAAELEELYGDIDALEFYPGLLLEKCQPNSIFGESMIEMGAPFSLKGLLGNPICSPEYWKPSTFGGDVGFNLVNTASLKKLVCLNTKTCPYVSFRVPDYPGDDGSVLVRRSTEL
experiment.description: Inhibitory activity in relation to COX 1 in peritoneal macrophages exposed to zymosan
protocol.conditions: mice peritoneal macrophages
pIC50: −log10 of the molar value.

The following compounds have reported results that may help.
- chem.smiles: "c1ccc(-c2[nH]c(-c3ccccc3)c3c2CCCC3)cc1"
  reported.property: "pIC50"
  result: "6.30 to 7.00"
- chem.smiles: "c1ccc(-c2[nH]c(-c3ccccc3)c3c2CCC3)cc1"
  reported.property: "pIC50"
  result: "6.30 to 7.00"

Now let's try a different one.
Data point: Fc1ccc(-c2[nH]c(-c3ccc(F)cc3)c3c2CCCC3)cc1 ; pIC50 = 6.30 to 7.00
